- assayMethodText: in vivo
- testContext: female, Sprague Dawley, rat, in vivo, iv, 3 mg/kg

[
  {
    "molecule": "Cc1ccccc1-n1c(Cn2cnc3c(N)ncnc32)nc2cccc(C)c2c1=O (single isomer, unassigned) [Compound 1]",
    "unitLabel": "mL/min/kg",
    "clearance": 26
  }
]

====

- assayMethodText: in vivo
- testContext: female, Sprague Dawley, rat, in vivo, iv, 3 mg/kg
measuredMetric: half-life

[
  {
    "compound": "Cc1ccccc1-n1c(Cn2cnc3c(N)ncnc32)nc2cccc(C)c2c1=O (single isomer, unassigned)",
    "resultValue": "2.5 h"
  }
]

====

- assayMethodText: in vivo
- testContext: female, Sprague Dawley, rat, in vivo, iv, 3 mg/kg

[
  {
    "compound": "Cc1ccccc1-n1c(Cn2cnc3c(N)ncnc32)nc2cccc(C)c2c1=O (single isomer, unassigned)",
    "Vd": "5.4 L/kg"
  }
]

====

- assayMethodText: in vivo
- testContext: female, Sprague Dawley, rat, plasma, iv, 1.5 mg/kg
measuredMetric: Vd (L/kg)

[
  {
    "molecule": "Cc1ccccc1-n1c(Cn2cnc3c(N)ncnc32)nc2cccc(C)c2c1=O (single isomer, unassigned) [Compound 1(S)]",
    "resultValue": 5.77
  }
]

====

- assayMethodText: clinical
- testContext: human, plasma, po, 100 mg
measuredMetric: half-life

[
  {
    "compound": "Cc1ccccc1-n1c(Cn2cnc3c(N)ncnc32)nc2cccc(C)c2c1=O (single isomer, unassigned) [Compound 1(S)]",
    "measuredMetric": "half-life",
    "resultValue": "> 72 h"
  }
]

====

- assayMethodText: clinical
- testContext: human, plasma, po, 100 mg, half-life, human subjects, single 100 mg oral dose of racemic 1

[
  {
    "molecule": "Cc1ccccc1-n1c(Cn2cnc3c(N)ncnc32)nc2cccc(C)c2c1=O (single isomer, unassigned) [Compound 1(R)]",
    "half-life": "~9 h"
  }
]

====

- assayMethodText: in vivo
- testContext: female, Sprague Dawley, rat, in vivo, iv, 3 mg/kg

[
  {
    "compound": "Cc1ccccc1-n1c(Cn2cnc3c(N)ncnc32)nc2cccc(C)c2c1=O (single isomer, unassigned)",
    "AUC [ng·h/mL]": 1970
  }
]

====

- assayMethodText: in vivo
- testContext: female, Sprague Dawley, rat, plasma, iv, 1.5 mg/kg
measuredMetric: clearance

[
  {
    "compound": "Cc1ccccc1-n1c(Cn2cnc3c(N)ncnc32)nc2cccc(C)c2c1=O (single isomer, unassigned) [Compound 1(S)]",
    "measuredMetric": "clearance",
    "resultValue": "30.6 mL/min/kg"
  }
]

====

- assayMethodText: in vivo
- testContext: female, Sprague Dawley, rat, plasma, iv, 1.5 mg/kg

[
  {
    "compound": "Cc1ccccc1-n1c(Cn2cnc3c(N)ncnc32)nc2cccc(C)c2c1=O (single isomer, unassigned) [Compound 1(S)]",
    "unitLabel": "ng·h/mL",
    "AUC": 865
  }
]

====

- assayMethodText: in vivo
- testContext: female, Sprague Dawley, rat, plasma, iv, 1.5 mg/kg
measuredMetric: half-life (h)

[
  {
    "compound": "Cc1ccccc1-n1c(Cn2cnc3c(N)ncnc32)nc2cccc(C)c2c1=O (single isomer, unassigned) [Compound 1(S)]",
    "measuredMetric": "half-life",
    "unitLabel": "h",
    "resultValue": 2.5
  }
]
